# test.name: Cytotoxicity against rat PC-12 cells measured after 24 hrs by MTT assay
# Assay type: toxicity, cell-based
Reported IC50 at 24 h values follow for various molecules
measured.quantity: IC50 at 24 h

input.smiles | measured.quantity | value.observed
CCCCCCCCCCCCC/C=C/[C@@H](O)[C@H](CO[C@@H]1O[C@H](CO)[C@@H](O[C@@H]2O[C@H](CO)[C@H](O)[C@H](O[C@]3(C(=O)O)C[C@H](O)[C@@H](NC(=O)c4ccccc4)[C@H]([C@H](O)[C@H](O)CO)O3)[C@H]2O)[C@H](O)[C@H]1O)NC(=O)CCCCCCCCCCCCCCCCC | IC50 at 24 h | > 200 µM
CCCCCCCCCCCCC/C=C/[C@@H](O)[C@H](CO[C@@H]1O[C@H](CO)[C@@H](O[C@@H]2O[C@H](CO)[C@H](O)[C@H](O[C@]3(C(=O)O)C[C@H](O)[C@@H](NC(=O)c4ccc(C=O)cc4)[C@H]([C@H](O)[C@H](O)CO)O3)[C@H]2O)[C@H](O)[C@H]1O)NC(=O)CCCCCCCCCCCCCCCCC | IC50 at 24 h | > 200 µM
CCCCCCCCCCCCC/C=C/[C@@H](O)[C@H](CO[C@@H]1O[C@H](CO)[C@@H](O[C@@H]2O[C@H](CO)[C@H](O)[C@H](O[C@]3(C(=O)O)C[C@H](O)[C@@H](NC(=O)c4ccncc4)[C@H]([C@H](O)[C@H](O)CO)O3)[C@H]2O)[C@H](O)[C@H]1O)NC(=O)CCCCCCCCCCCCCCCCC | IC50 at 24 h | > 200 µM
